# Read-out: serum amyloid A (SAA), SAA1 (gene 6288)
# assay-info: BSK_CASM3C_SAA: BioMAP Diversity Plus: CASM3C Assay for serum amyloid A (SAA) Biomarker Activity (AID 2283049);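 further: SAA protein level quantified by ELISA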
# condition-info: primary human coronary artery smooth muscle cells; actives raise or lower the signal
The source made the active and inactive calls. How the source made its calls: active means hit-call score of the fitted dose curve at least 0.9, where 1 is the maximum; inactive means score below 0.9.
Mark one answer only. Choices: True = active, False = inactive

The examples below pair each entry with its known result.
compound	group-label
CCNc1ccccc1	False
CCOC(=O)c1ccc(C2CCC(NC[C@H](O)COc3ccc(O)c(NS(C)(=O)=O)c3)CC2)cc1 (stereo partly specified)	False
CC(C)c1cccc(C(C)C)c1N1C(=O)c2ccc(O)cc2C1=O	True
COc1cccc(-c2ccc(/C=C\CN3CCCCCC3)cc2Cl)c1	True
Cc1ccc(C)c(O)c1	False

Now examine the next entry.
Hi team, can someone confirm the assay call for O=c1[nH]c2ccc(S(=O)CCN3CCC(Cc4ccc(F)cc4)CC3)cc2o1 (stereo unspecified) ?
False

====

# assay-info: BSK_hDFCGF_SRB: Viability Assessment in the BioMAP Diversity Plus: hDFCGF Assay (AID 2283061);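 further: cells exposed to compound for 24 h before the read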
# condition-info: primary human foreskin fibroblasts
The source made the active and inactive calls. How the source made its calls: active means hit-call score of the fitted dose curve at least 0.9, where 1 is the maximum; inactive means score below 0.9.
Mark one answer only. Choices: true (1) for active, false (0) for inactive

compound	group-label
CC(O)CN(CCN(CC(C)O)CC(C)O)CC(C)O (centres undefined)	false (0)
CCCCC(CC)COC(=O)CCCCCCCCC(=O)OCC(CC)CCCC (centres undefined)	false (0)
COC(=O)c1c(Cl)c(Cl)c(C(=O)OC)c(Cl)c1Cl	false (0)
CNCc1ccc(NC(=O)c2c[nH]c3c2C(=O)CCC3)cc1	false (0)
O=C1OC(=O)C2C3C=CC(C3)C12 (centres undefined)	false (0)
O=C(O)c1cc(N=Nc2ccc(S(=O)(=O)Nc3ccccn3)cc2)ccc1O	false (0)
Cc1ccc(O)cc1	false (0)
CCc1cc(SCc2sc(-c3ccc(C(F)(F)F)cc3)nc2CN2CCN(c3ccc(OC)cc3)CC2)ccc1OCC(=O)O	true (1)

Hi team, can someone confirm the assay call for "CC(C)=CCCC(C)=CC=O" ?
false (0)

Hi team, can someone confirm the assay call for "CC(=O)OC[C@H]1O[C@@](COC(C)=O)(O[C@H]2O[C@H](COC(C)=O)[C@@H](OC(C)=O)[C@H](OC(C)=O)[C@H]2OC(C)=O)[C@@H](OC(C)=O)[C@@H]1OC(C)=O" ?
false (0)

Hi team, can someone confirm the assay call for COc1ccc(-n2nc(C(F)F)cc2-c2ccc(S(C)=O)cc2)cc1 (centres undefined) ?
false (0)

====

# Read-out: Bcl-2 (BAX) gene, BAX (gene 581)
# assay-info: LTEA_HepaRG_BAX: Life Technologies and Expression Analysis (LTEA) Assay for Bcl-2 (BAX) gene using HepaRG (AID 2283470)
# condition-info: mRNA level, 48 h; actives raise or lower the signal
The source made the active and inactive calls. Rule for the calls: active = hit-call score of the fitted dose curve at least 0.9, where 1 is the maximum; inactive = score below 0.9.
Mark one answer only. Choices: Y for active, N for inactive

The examples below pair each entry with its known result.
compound	group-label
NC(=O)NO	N
C=CC(=C)CCC=C(C)C	N
Nc1ccc(Nc2ccccc2)cc1	N
CC(=O)c1ccc2c(c1)[C@H](NC(=O)c1ccc(F)cc1)[C@@H](O)C(C)(C)O2	N
CCNc1ccccc1	N
C1=CCCC=CCCC=CCC1	N
CCCN(C1CCN(C(=O)C2CCNCC2)CC1)[C@@H]1CCc2ccc(OC)cc2C1	N
CCCC(=O)OCC	N

Hi team, can someone confirm the assay call for "Cc1ccc(N)cc1O" ?
N

Hi team, can someone confirm the assay call for "On1ccccc1=S" ?
N

Hi team, can someone confirm the assay call for "Cn1cnc([N+](=O)[O-])c1Sc1ncnc2nc[nH]c12" ?
Y

Hi team, can someone confirm the assay call for "COCCOCCOCCOC" ?
N

Hi team, can someone confirm the assay call for "COc1ccc2sc(C(=O)Nc3nnn[nH]3)c(OC(C)C)c2c1" ?
Y

Hi team, can someone confirm the assay call for O=c1[nH]c2ccc(S(=O)CCN3CCC(Cc4ccc(F)cc4)CC3)cc2o1 (stereo not given) ?
N

Hi team, can someone confirm the assay call for "CCc1cc(SCc2sc(-c3ccc(C(F)(F)F)cc3)nc2CN2CCN(c3ccc(OC)cc3)CC2)ccc1OCC(=O)O" ?
Y

Hi team, can someone confirm the assay call for "Nc1nc2ncc(CNc3ccc(C(=O)N[C@@H](CCC(=O)O)C(=O)O)cc3)nc2c(=O)[nH]1" ?
N

Hi team, can someone confirm the assay call for "CCC(C)(C)C(=O)O[C@H]1C[C@@H](C)C=C2C=C[C@H](C)[C@H](CC[C@@H]3C[C@@H](O)CC(=O)O3)[C@H]21" ?
N

Hi team, can someone confirm the assay call for "CC(C)=CCC/C(C)=C/CO" ?
N

Hi team, can someone confirm the assay call for "Cc1ccc(O)cc1" ?
N

====

# subject-of-test: Hypoxia-inducible factor 1-alpha (Homo sapiens) (UniProt Q16665)
# Sequence (Q16665 whole entry, looked up): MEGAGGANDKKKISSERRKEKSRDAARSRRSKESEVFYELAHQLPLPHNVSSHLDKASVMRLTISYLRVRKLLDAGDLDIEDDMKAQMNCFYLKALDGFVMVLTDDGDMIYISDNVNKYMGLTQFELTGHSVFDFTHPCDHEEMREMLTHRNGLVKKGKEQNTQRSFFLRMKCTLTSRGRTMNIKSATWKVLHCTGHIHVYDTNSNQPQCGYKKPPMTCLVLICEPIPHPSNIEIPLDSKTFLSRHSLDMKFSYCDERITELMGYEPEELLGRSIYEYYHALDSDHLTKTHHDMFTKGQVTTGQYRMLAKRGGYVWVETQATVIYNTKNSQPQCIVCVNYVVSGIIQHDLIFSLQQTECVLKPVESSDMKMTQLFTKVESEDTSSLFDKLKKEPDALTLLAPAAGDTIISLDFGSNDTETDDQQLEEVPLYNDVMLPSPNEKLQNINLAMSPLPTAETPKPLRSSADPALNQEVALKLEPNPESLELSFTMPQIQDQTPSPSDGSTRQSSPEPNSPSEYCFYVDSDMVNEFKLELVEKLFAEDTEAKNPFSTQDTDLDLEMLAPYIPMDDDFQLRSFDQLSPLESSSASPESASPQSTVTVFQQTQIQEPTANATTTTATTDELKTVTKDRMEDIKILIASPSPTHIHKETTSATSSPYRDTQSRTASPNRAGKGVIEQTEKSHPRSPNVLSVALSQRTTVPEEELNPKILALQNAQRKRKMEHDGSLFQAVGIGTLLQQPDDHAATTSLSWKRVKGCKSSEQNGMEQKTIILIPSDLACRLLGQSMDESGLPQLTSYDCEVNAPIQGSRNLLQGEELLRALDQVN
# assay-info: ATG_HIF1a_CIS: Attagene CIS-FACTORIAL HepG2 Assay for human Hypoxia Inducible Factor 1 (HIF1A) (AID 2282951)
# condition-info: HepG2 Attagene cis-factorial HIF1a reporter transcription; actives raise or lower the signal
Activity calls are given as the source filed them. How the source made its calls: active means hit-call score of the fitted dose curve at least 0.9, where 1 is the maximum; inactive means score below 0.9.
Mark one answer only. Choices: active, inactive

compound	group-label
CNS(=O)(=O)c1cc(C(=O)N2CCC(CCN3C4CCC3CC(n3c(C)nc5ccccc53)C4)(c3cccc(F)c3)CC2)c(Cl)cc1F (stereo unspecified)	inactive
COC(=O)c1ccccc1O	inactive
CCNc1ccccc1	active
Clc1nc(Cl)c(Cl)c(Cl)c1Cl	inactive
O=C(O)c1cccc(N(Cc2cccnc2)c2ccc(OC(F)F)c(OC(F)F)c2)c1	inactive

Now examine the next entry.
Hi team, can someone confirm the assay call for "CCN(C(=O)c1cc(C)cc(OC[C@H](C)Nc2ccncc2)c1)C(C)C" ?
inactive

====

# assay-info: ATG_NRF2_ARE_CIS: Attagene CIS-FACTORIAL HepG2 Assay for human Nuclear Factor Erythroid 2 Related Factor 2 (NFR2) response to Antioxidant Response Elements (ARE) (AID 2282992)
# condition-info: HepG2 Attagene ARE/NRF2 reporter, transcription factor activity; actives raise or lower the signal
Active and inactive are the calls of the source. How the source made its calls: active means hit-call score of the fitted dose curve at least 0.9, where 1 is the maximum; inactive means score below 0.9.
Mark one answer only. Choices: active, inactive

compound	group-label
Cn1c(=O)c2c(ncn2C)n(C)c1=O	inactive
CC[C@H](C)C(=O)O[C@H]1C[C@@H](C)C=C2C=C[C@H](C)[C@H](CC[C@@H]3C[C@@H](O)CC(=O)O3)[C@H]21	active
CC(C)(O)c1coc(S(=O)(=O)NC(=O)Nc2c3c(cc4c2CCC4)CCC3)c1	inactive
C1=CCCC=CCCC=CCC1	active
CCOC(=O)CC(CC(=O)OCC)(OC(C)=O)C(=O)OCC	active
COC(=O)c1ccccc1O	inactive
On1ccccc1=S	active
Cc1ccc(S(=O)(=O)O)cc1C	inactive

Hi team, can someone confirm the assay call for CCCCC(CC)COC(=O)CCCCCCCCC(=O)OCC(CC)CCCC (stereo not given) ?
inactive

Hi team, can someone confirm the assay call for "CC[C@H]1OC(=O)[C@H](C)[C@@H](O[C@H]2C[C@@](C)(OC)[C@@H](O)[C@H](C)O2)[C@H](C)[C@@H](O[C@@H]2O[C@H](C)C[C@H](N(C)C)[C@H]2O)[C@](C)(O)C[C@@H](C)C(=O)[C@H](C)[C@@H](O)[C@]1(C)O" ?
inactive

====

# subject-of-test: rat Peripheral-type Benzodiazepine Receptor (PBR), Tspo (gene 24230) (UniProt P16257)
# Sequence (P16257 whole entry, looked up): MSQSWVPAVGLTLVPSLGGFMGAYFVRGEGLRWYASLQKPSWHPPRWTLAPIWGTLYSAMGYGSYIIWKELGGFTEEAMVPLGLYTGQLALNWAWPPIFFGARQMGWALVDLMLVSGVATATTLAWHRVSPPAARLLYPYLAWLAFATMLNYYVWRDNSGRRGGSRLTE
# assay-info: NVS_MP_rPBR: NovaScreen (NVS) Membrane Protein Assay for rat Peripheral-type Benzodiazepine Receptor (PBR) (AID 2283335)
Inconclusive results are not listed. Calls of active or inactive are those of the source. The calls were made as follows: active = hit-call score of the fitted dose curve at least 0.9, where 1 is the maximum; inconclusive = response in the unintended direction; inactive = score below 0.9.
quantity-name: AC50

Sample answers from the record:
COc1cccc(-c2ccc(/C=C\CN3CCCCCC3)cc2Cl)c1 8.04 µM (active)
COc1ccc2sc(C(=O)Nc3nnn[nH]3)c(OC(C)C)c2c1 25 µM (active)

Any idea what AC50 was measured for "Cc1c(-c2cccnc2)c2ccccc2n1CCCCC(=O)O" ?
9.13 µM (active)

Any idea what AC50 was measured for "O=P(OC(CCl)CCl)(OC(CCl)CCl)OC(CCl)CCl" ?
2.36 µM (active)

Any idea what AC50 was measured for "CCc1cc(SCc2sc(-c3ccc(C(F)(F)F)cc3)nc2CN2CCN(c3ccc(OC)cc3)CC2)ccc1OCC(=O)O" ?
1.81 µM (active)

====

# assay-info: ATG_NFI_CIS: Attagene CIS-FACTORIAL HepG2 Assay for human Nuclear Factor I (NFI) (AID 2282989)
# condition-info: HepG2 cis-regulatory reporter, NFI response element transcription; actives raise or lower the signal
Active and inactive are the calls of the source. How the source made its calls: active means hit-call score of the fitted dose curve at least 0.9, where 1 is the maximum; inactive means score below 0.9.
Mark one answer only. Choices: Y (active), N (inactive)

molecule	group-label
CCOCCOCCOCCO	N

Now examine the next entry.
Hi team, can someone confirm the assay call for "O=C(O)c1cc(N=Nc2ccc(S(=O)(=O)Nc3ccccn3)cc2)ccc1O" ?
N
